# study-system: AgLsb4
# method-description: SPOT peptide array binding signal intensity (averaged, normalized) (arbitrary units (background-subtracted, floor 0; scale differs between SH3 domains)); higher = stronger binding of the SH3 domain to the peptide
Classes are defined on SPOT peptide array binding signal intensity with ranges bin 1: < 20; bin 2: ≥ 20 and < 200; bin 3: ≥ 200

[[record]]
binder = "IRMPSNPALPKKLLN"
label_value = "bin 2"

[[record]]
binder = "APPLPPTAPPPPSLP"
label_value = "bin 1"

[[record]]
binder = "KNPRRQLQIPRQQPS"
label_value = "bin 2"

[[record]]
binder = "TKIRRRPQQPLTDFT"
label_value = "bin 1"

[[record]]
binder = "NSVPIMPTLPPRPYI"
label_value = "bin 3"


# input Band of `NNQRRKPLLLNIGDH` ?
# output bin 1

# input Band of `NVLRKILEIPLHSFS` ?
# output bin 1

# input Band of `VNIPSPSSSPPPIPK` ?
# output bin 1

# input Band of `AVPPPPPPPPLPESL` ?
# output bin 1

# input Band of `DRIRMFIRFPKFLLE` ?
# output bin 2

# input Band of `VQQDSLPKLPFRSWG` ?
# output bin 3

# input Band of `APERAVPILPPRNNV` ?
# output bin 3

# input Band of `RTRRRPPPPPIPSTQ` ?
# output bin 2

# input Band of `VSKLRSPNTPRRLRK` ?
# output bin 2

# input Band of `NRARYLPQNPDIIAG` ?
# output bin 1

# input Band of `EREKALPPIPFTTTL` ?
# output bin 1

# input Band of `MSPLGAPPPPPHKDH` ?
# output bin 1
